experiment: soluble fraction after stress (log2 fold change); higher = more stays soluble; pooled small domains, quantitative proteomics; conditions: stress: 75 degC;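 also: 20 min heating vs room temperature control held 20 min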
Entries and their soluble fraction (log2)
Just the number, please, no unit after it.

In the examples that follow, each entry is paired with its recorded soluble fraction (log2).
[
  {
    "construct-sequence": "HMQDVVFTVDKDQTGAEIGDMLYEKGIISSPTTFRLALRLTGSMDKLQQGYYQIPQNASLRQVIALLQKG",
    "soluble fraction (log2)": -0.35
  },
  {
    "construct-sequence": "HMKIQISGSQRIDENVVVKVAGLSFPQSLLSLEPGQIESKLMQELPVQEVSVQRRLLPPGLDIQLVE",
    "soluble fraction (log2)": -0.0996
  },
  {
    "construct-sequence": "HMEMPGGVMRTLSTIAYNQPVLQSKLVKVRGPRAYEDVHILRDMGLVSARSVGQTVELSTTPKFAEQF",
    "soluble fraction (log2)": -0.622
  }
]

*Q* Can you look up the measured soluble fraction (log2) of HMEFPYISGVDVGTISNKEFARFETTKASDIVIALDKSGIPFSARFGDSEIVLTYDGSYKEEVEEIIAKV for me?
*A* 0.172

*Q* Now the same for HMGQELRFVIQDHEAGIRLDHYLTQQVEGYSRSHLRKLMDQGLITVDGSYRKAGYRLNVGDVIHVVIPPTR
*A* -0.813

*Q* Now the same for HMSMPTITLQHYKRGSHYYASIIETFRDPVTRKNSSRTLEALGDISEKMKEDPNYLQSLKDRVKALRSD
*A* -0.899

*Q* Now the same for HMFAGEWKQDASGWWYQNDDGSFTRNGWQNISGKQYYFNENGYMLHDTTTPDGKQVGSDGSLV
*A* 0.0573

*Q* Now the same for HMTNKYSSLVIGTVKTIMEEDQYKNLMGPPLKKEIIKQVDKFTNALPIEFDQNDKDFYVKKILINL
*A* -0.377

*Q* Now the same for HMEEAQWEFKWENTDSAEIHGPHSSSEMLKWQENSFFAKGVYVRKVGGDTTDFTDGKRIDFDLY
*A* -0.705

*Q* Now the same for HMKLLLSANISKLRKKYSMTQEQLAEALGVTFASVSKWERGVATPELKLIAEMADMFEVSIDALIGYEFRN
*A* -1.87

*Q* Now the same for HMGIDISAFSETALQVLRLQAAGYTAKEISEKLHITPRTVKYHASQNYRKLDAKNLVDAVQIAQALHI
*A* -1.79

*Q* Now the same for HMTQLPEVPVERGMVLEEVQSGWVGAVTRVEKSGGMHVVALEDRRGKSRSFRLGFGFLLEGQPIRLMPPAP
*A* -1.89

*Q* Now the same for HMRPEARAASLSDEERKIFDYLAANGEKTIDNISVAVKMSAADILKNITLMSAKGLVYMPSAGRYGVKGN
*A* -0.297
